Target: T1, Human Nectin-4 (human, UniProt Q96NY8 32-349, limits assumed)
T1 construct: Protein immobilised on the SPR chip; also called target protein
T1 sequence: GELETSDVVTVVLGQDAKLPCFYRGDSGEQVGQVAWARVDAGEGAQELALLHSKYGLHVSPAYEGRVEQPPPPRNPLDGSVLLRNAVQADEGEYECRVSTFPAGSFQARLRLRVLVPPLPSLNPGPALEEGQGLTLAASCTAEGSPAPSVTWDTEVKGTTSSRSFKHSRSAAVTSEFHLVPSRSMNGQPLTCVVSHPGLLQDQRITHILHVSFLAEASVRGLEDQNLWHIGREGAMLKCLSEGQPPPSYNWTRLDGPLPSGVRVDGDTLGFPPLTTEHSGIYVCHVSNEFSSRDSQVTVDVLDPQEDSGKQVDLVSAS
Assay: Table 2B (DELFIA or SPR)
pKd: −log10 of the molar value. Bridges are numbered along the chain shown (N, C = ends). Primed or numbered codes have the meaning given here. Where no end group is shown, it is not given here. The star is where a group is joined. Biotin = O=C1N[C@H]2[C@H](CS[C@H]2CCCCC(=O)*)N1; PEG4″ = 4(ethylene glycol); PEG4′ = not defined here
pKd: recorded values
measured_attribute: pKd

1) {Biotin-PEG4″}-CEYDEEFFTALKRLRGGDICYYIQASFQYLPGLCIEEILDNLGCS (designed binder, disulfide 1-34, 20-44) [C111]: 8.36
2) {Biotin-PEG4″}-CEYDEQFFTALKRLRGGDICSYIQASFQYLPGLCIEEILDNLGCS (designed binder, disulfide 1-34, 20-44) [C184]: 8.60
3) Ac-CEYDEEFFKGLKRLRGGDICYYIKKKFKKVPKLCIEEILDKLGC-OH (designed binder, disulfide 1-34, 20-44) [C80]: 8.57
4) Ac-CEYDEEFFTGLKRLRGGDICYYIKKKFKKVPDLCIEEILKKLGC-OH (designed binder, disulfide 1-34, 20-44) [C44]: 8.50
5) {Biotin-PEG4″}-CEYDEEFFTALARLRGGDICDYIQAKFQYLPKLCIEEILDNLGCS (designed binder, disulfide 1-34, 20-44) [C169]: 9.13
6) {Biotin-PEG4′}-CEYDEQFFTALKRLRGDDICDYIQASFQYLPGLCIEEILDNLGCS (designed binder, cysteine pairing not given here) [C197]: 9.01
